Species on record: Rattus norvegicus
Test: In vitro inhibitory effect on D-Galactosamine induced cytotoxicity in primary cultured rat hepatocytes at 1 ug/mL
Assay type: functional
Settings: Hepatocyte
Parameter inhibition at 1 µg/mL: see the listing below.
Number in %, nothing else.

compound	unitsOfMeasure	inhibition at 1 µg/mL
C[C@H]1O[C@@H](O[C@H]2CC[C@@]3(C)C(CC[C@]4(C)C3[C@H](O)C=C3C5CC(C)(C)CC[C@]5(CO)[C@@H](O)C[C@]34C)[C@]2(C)CO)[C@H](O)[C@@H](O[C@@H]2O[C@H](CO)[C@@H](O)[C@H](O)[C@H]2O)[C@H]1O (some centres undefined)	%	16.7
C[C@H]1O[C@@H](OC2CC[C@@]3(C)C(CC[C@]4(C)C3C=CC3=C5CC(C)(C)CC[C@]5(CO)[C@@H](O)C[C@]34C)[C@]2(C)CO)[C@H](O)[C@@H](O[C@@H]2O[C@H](CO)[C@@H](O)[C@H](O)[C@H]2O)[C@H]1O (some centres undefined)	%	-1.4

[Q] Name the reported inhibition at 1 µg/mL value associated with the compound C[C@H]1O[C@@H](OC2CC[C@@]3(C)C(CC[C@]4(C)C3C=CC3=C5C[C@](C)(C(=O)O)CC[C@]5(CO)[C@H](O)C[C@]34C)[C@]2(C)CO)[C@H](O)[C@@H](O[C@@H]2O[C@H](CO)[C@@H](O)[C@H](O)[C@H]2O)[C@H]1O (some centres undefined) [BUPLEUROSIDE V]
[A] 1.5

[Q] Request: C[C@@H]1O[C@@H](O[C@@H]2[C@H](O)[C@@H](O)[C@H](O[C@H]3CC[C@@]4(C)C(CC[C@]5(C)C4C=C[C@]46OC[C@@]7(CCC(C)(C)CC74)[C@@H](O)C[C@]65C)C3(C)C)O[C@@H]2CO[C@@H]2O[C@H](CO)[C@@H](O)[C@H](O)[C@H]2O)[C@H](O)[C@H](O)[C@H]1O (some centres undefined)
[A] -0.7

[Q] Request: CC1(C)CC[C@@]2(CO)C(C1)C1=CC(=O)C3[C@@]4(C)CC[C@H](O)[C@@](C)(CO)C4CC[C@@]3(C)[C@]1(C)C[C@@H]2O (some centres undefined)
[A] 0.6

[Q] Request: CO[C@@H]1C=C2C3CC(C)(C)CC[C@]3(CO)[C@@H](O)C[C@@]2(C)[C@]2(C)CCC3[C@](C)(CCC(O[C@@H]4O[C@H](CO[C@@H]5O[C@H](CO)[C@@H](O)[C@H](O)[C@H]5O)[C@H](O[C@@H]5O[C@@H](C)[C@H](O)[C@@H](O)[C@H]5O)[C@H](O)[C@H]4O)[C@@]3(C)CO)C12 (some centres undefined)
[A] 1.2
